Reported EC50, CellTiter-Glo values are given for each entry in this list.
Tested on: DU-4475
Conditions: 72 h
Return type: number; implicit unit nM.

Worked examples, 4 compounds total:
CC(C)C[C@H](NC(=O)[C@H](CCc1ccccc1)NC(=O)CN1CCOCC1)C(=O)N[C@@H](Cc1ccccc1)C(=O)N[C@@H](CC(C)C)C(=O)[C@@]1(C)CO1 [Carfilzomib] = 42.8
CC(C)n1nc(-c2ccc3oc(N)nc3c2)c2c(N)ncnc21 [INK128] = 188
CO[C@H](C(=O)[C@@H](O)[C@@H](C)O)[C@@H]1Cc2cc3cc(O[C@H]4C[C@@H](O[C@@H]5C[C@@H](O)[C@H](O)[C@@H](C)O5)[C@H](O)[C@@H](C)O4)c(C)c(O)c3c(O)c2C(=O)[C@H]1O[C@H]1C[C@@H](O[C@@H]2C[C@@H](O)[C@@H](O[C@@H]3C[C@](C)(O)[C@H](O)[C@@H](C)O3)[C@@H](C)O2)[C@H](O)[C@@H](C)O1 [Plicamycin] = 3220
N[C@@H](Cc1ccc(N(CCCl)CCCl)cc1)C(=O)O [Melphalan] = 322

Please turn your attention to the following entry.
Which measured EC50, CellTiter-Glo value corresponds to CCCc1cc(C)[nH]c(=O)c1CNC(=O)c1cc(-c2ccnc(N3CCN(C)CC3)c2)cc2c1cnn2C(C)C [GSK343] ?
2380

====

System: BT-549
Test: drug sensitivity score (DSS), CellTiter-Blue viability (DSS (AUC-based score)); higher = stronger viability inhibition; extreme values may be limits of the assay
Conditions: incubation time: 72 h
measured.quantity: drug sensitivity score
Lab note: record just the number, no unit beside it.

Worked examples, 3 molecules total:
O=C(O)CC[C@H]1CC[C@@](c2cc(F)ccc2F)(S(=O)(=O)c2ccc(Cl)cc2)CC1 = 0
CCN(CC)CCOc1ccc(C(=C(Cl)c2ccccc2)c2ccccc2)cc1 = 3.64
CC/C(=C(\c1ccccc1)c1ccc(OCCN(C)C)cc1)c1ccccc1 = 1.73

Please turn your attention to the following entry.
Which measured drug sensitivity score value corresponds to "CN1CCN(c2nc(C3=C(c4c[nH]c5ccccc45)C(=O)NC3=O)c3ccccc3n2)CC1" ?
0

====

Tested on: MDA-MB-453
Experiment: normalised response (% of control), CellTiter-Glo; higher = more viable cells (100 = DMSO, 0 = benzethonium chloride kill control)
Conditions: incubation time: 72 h
Lab note: compare normalised response against 90%. Equal or greater, write y. Smaller, write n.

Worked cases, answers included:
CC(C)NC[C@@H](C(=O)N1CCN(c2ncnc3c2[C@H](C)C[C@H]3O)CC1)c1ccc(Cl)cc1 [GDC-0068] (1 nM) = y
NC1(c2ccc(-c3nc4ccn5c(=O)[nH]nc5c4cc3-c3ccccc3)cc2)CCC1 [MK-2206] (100 nM) = n
CO[C@H]1C[C@@H]2CC[C@@H](C)[C@@](O)(O2)C(=O)C(=O)N2CCCC[C@H]2C(=O)O[C@H]([C@H](C)C[C@@H]2CC[C@@H](O)[C@H](OC)C2)CC(=O)[C@H](C)/C=C(\C)[C@@H](O)[C@@H](OC)C(=O)[C@H](C)C[C@H](C)/C=C/C=C/C=C/1C [Sirolimus] (10 nM) = n
CCCc1cc(C)[nH]c(=O)c1CNC(=O)c1cc(-c2ccnc(N3CCN(C)CC3)c2)cc2c1cnn2C(C)C [GSK343] (1000 nM) = n
O=NN(CCCl)C(=O)NC1CCCCC1 [Lomustine] (1000 nM) = y

Given the entry Cc1c(C(=O)Nc2ccc(N3C[C@@H](C)O[C@@H](C)C3)nc2)cccc1-c1ccc(OC(F)(F)F)cc1 [Erismodegib] (1000 nM) , answer whether its normalised response meets or surpasses 90%.
n

Do the same for CCc1cnn2c(NCc3ccc[n+]([O-])c3)cc(N3CCCC[C@H]3CCO)nc12 [Dinaciclib] (0.1 nM) please
y

Do the same for CC(C)NC[C@@H](C(=O)N1CCN(c2ncnc3c2[C@H](C)C[C@H]3O)CC1)c1ccc(Cl)cc1 [GDC-0068] (1000 nM) please
n

====

Tested on: HCC1937
Assay: normalised response (% of control), CellTiter-Glo; higher = more viable cells (100 = DMSO, 0 = benzethonium chloride kill control)
Conditions: incubation time: 72 h
Reported normalised response values are given for each entry in this list.
Your answer should be a number followed by the unit of measure.

CC(C)C(=O)Nc1ccc([N+](=O)[O-])c(C(F)(F)F)c1 [Flutamide] (10 nM) = 102%
CCc1cnn2c(NCc3ccc[n+]([O-])c3)cc(N3CCCC[C@H]3CCO)nc12 [Dinaciclib] (0.1 nM) = 102%
CCc1cnn2c(NCc3ccc[n+]([O-])c3)cc(N3CCCC[C@H]3CCO)nc12 [Dinaciclib] (1 nM) = 98.5%
CC/C(=C(\c1ccccc1)c1ccc(OCCN(C)C)cc1)c1ccccc1 [Tamoxifen] (1 nM) = 102%
CO[C@H](C(=O)[C@@H](O)[C@@H](C)O)[C@@H]1Cc2cc3cc(O[C@H]4C[C@@H](O[C@@H]5C[C@@H](O)[C@H](O)[C@@H](C)O5)[C@H](O)[C@@H](C)O4)c(C)c(O)c3c(O)c2C(=O)[C@H]1O[C@H]1C[C@@H](O[C@@H]2C[C@@H](O)[C@@H](O[C@@H]3C[C@](C)(O)[C@H](O)[C@@H](C)O3)[C@@H](C)O2)[C@H](O)[C@@H](C)O1 [Plicamycin] (1000 nM) = 90%
CCCc1cc(C)[nH]c(=O)c1CNC(=O)c1cc(-c2ccnc(N3CCN(C)CC3)c2)cc2c1cnn2C(C)C [GSK343] (1 nM) = 93.4%
O=NN(CCCl)C(=O)NC1CCCCC1 [Lomustine] (10 nM) = 102%
CC(C)n1nc(-c2ccc3oc(N)nc3c2)c2c(N)ncnc21 [INK128] (0.1 nM) = 89.1%

Which measured normalised response value corresponds to CCc1c(C(=O)C(N)=O)c2c(OCC(=O)O)cccc2n1Cc1ccccc1 [Varespladib] (1000 nM) ?
100%

Do the same for CC[C@@H]1C(=O)N(C)c2cnc(Nc3ccc(C(=O)N[C@H]4CC[C@H](N5CCN(CC6CC6)CC5)CC4)cc3OC)nc2N1C(C)C [Volasertib] (1 nM) please
99.2%

Do the same for CN1CCc2c(c3ccccc3n2Cc2ccc(C(=O)NO)cc2)C1 [Tubastatin A] (1000 nM) please
92.9%

Do the same for CN1CCN(c2nc(C3=C(c4c[nH]c5ccccc45)C(=O)NC3=O)c3ccccc3n2)CC1 [Sotrastaurin] (10 nM) please
96.6%

Do the same for CC(C)(C)Cn1c(N)nc2ccc(-c3[nH]c(C(C)(C)C)nc3-c3ccc(F)cc3)nc21 (1000 nM) please
93.6%

====

System: DU-4475
Experiment: normalised response (% of control), CellTiter-Glo; higher = more viable cells (100 = DMSO, 0 = benzethonium chloride kill control)
Details: incubation time: 72 h
Reported normalised response values are given for each entry in this list.
Return type: number; implicit unit %.

C[C@]12C=CC(=O)C=C1CC[C@@H]1[C@@H]2C(=O)C[C@@]2(C)[C@H]1CC[C@]2(O)C(=O)CO [Prednisone] (100 nM) = 101

Which measured normalised response value corresponds to NC(=O)c1cccc2cn(-c3ccc([C@@H]4CCCNC4)cc3)nc12 [MK-4827] (100 nM) ?
99.8

Do the same for N[C@@H](Cc1ccc(N(CCCl)CCCl)cc1)C(=O)O [Melphalan] (125 nM) please
92.7

====

Tested on: CAL-148
Assay: drug sensitivity score (DSS), CellTiter-Glo (DSS (AUC-based score)); higher = stronger drug effect (viability inhibition or cytotoxicity); extreme values may be limits of the assay
Conditions: incubation time: 72 h
measured.quantity: drug sensitivity score
Lab note: record just the number, no unit beside it.

Worked examples, 2 molecules total:
CCc1cnn2c(NCc3ccc[n+]([O-])c3)cc(N3CCCC[C@H]3CCO)nc12 [Dinaciclib] = 7.54
CCCc1cc(C)[nH]c(=O)c1CNC(=O)c1cc(-c2ccnc(N3CCN(C)CC3)c2)cc2c1cnn2C(C)C [GSK343] = 0.724

Which measured drug sensitivity score value corresponds to CCN(CC)CCOc1ccc(C(=C(Cl)c2ccccc2)c2ccccc2)cc1 [Clomifene] ?
0

Do the same for Nc1nc(Cl)nc2c1ncn2[C@@H]1O[C@H](CO)[C@@H](O)[C@@H]1F [Clofarabine] please
8.43

Do the same for CC(C)n1nc(-c2ccc3oc(N)nc3c2)c2c(N)ncnc21 [INK128] please
14.7

Do the same for COc1cc(Nc2ncc(F)c(Nc3ccc4c(n3)N(COP(=O)(O)O)C(=O)C(C)(C)O4)n2)cc(OC)c1OC [Fostamatinib] please
0

Do the same for COc1cc2c(cc1-c1c(C)noc1C)ncc1[nH]c(=O)n([C@H](C)c3ccccn3)c12 [I-BET151] please
0

Do the same for CC(C)C(=O)Nc1ccc([N+](=O)[O-])c(C(F)(F)F)c1 [Flutamide] please
0

Do the same for Cn1nnc2c(C(N)=O)ncn2c1=O [Temozolomide] please
0
